Each entry below carries its measured IC50, system: human LSD1 (Homo sapiens (Human), UniProt O60341).

Past entries and their recorded results:
{"columns": ["compound", "IC50"],
 "data": [
  ["N#Cc1ccc2c(c1)CN(CC1(CN[C@H]3CC3c3ccccc3)CC1)C2 (some centres unmarked) [Example 100]", "≤ 50 nM"],
  ["O=C(O)c1ccccc1-c1nc(C2(CN[C@H]3C[C@@H]3c3ccccc3)CCC2)no1 [Example 134]", "100 to 500 nM"]
]}

IN: I would be grateful if you could share the reported IC50 for N[C@H]1CC[C@H](c2cc(C3(CN[C@@H]4C[C@H]4c4ccccc4)CC3)no2)CC1 [Example 241] .
OUT: ≤ 50 nM

IN: Would you mind telling me what IC50 value was observed for O=C(O)c1ccc(-c2nc(C3(CN[C@H]4CC4c4ccccc4)CCC3)no2)cc1 (some centres unmarked) [Example 188] ?
OUT: ≤ 50 nM

IN: Which value of IC50 has been reported for c1ccc([C@H]2C[C@@H]2NCC2(CNCc3cnc[nH]3)CC2)cc1 [Example 12] in the records?
OUT: 50 to 100 nM

IN: Which IC50 is reported for this compound? Cn1cc2c(n1)CN(CC1(CN[C@H]3CC3c3ccccc3)CC1)C2 (some centres unmarked) [Example 109]
OUT: ≤ 50 nM

IN: Item O=C(O)c1ccc(CNC2(CN[C@H]3C[C@@H]3c3ccccc3)CC2)cc1 [Example 200] has what recorded IC50?
OUT: 100 to 500 nM

IN: Give its IC50 value. Item: O=C(O)c1ccc(CN2CCC(Cc3nc(C4(CN[C@H]5CC5c5ccccc5)CC4)no3)CC2)cc1 (some centres unmarked) [Example 164]
OUT: ≤ 50 nM

---

The next entries give measured pIC50 for human LSD1 (Homo sapiens (Human), UniProt O60341).
pIC50: −log10 of the molar value.

Guide cases for pIC50, answers given:
{"columns": ["compound", "pIC50"],
 "data": [
  ["O=C(O)C1CCN(c2nc(C3(CN[C@@H]4C[C@H]4c4ccccc4)CC3)no2)CC1", "6.30 to 7.00"],
  ["NC(=O)c1ccc(-c2nc(C3(CN[C@H]4CC4c4ccccc4)CCC3)no2)cc1 (stereo partly drawn)", "≥ 7.30"],
  ["O=C(O)[C@H]1C[C@@H](c2nc(C3(CN[C@@H]4C[C@H]4c4ccccc4)CC3)no2)C1", "≥ 7.30"],
  ["c1ccc(C2C[C@@H]2NCC2(c3ccccc3)CCC2)cc1 (stereo partly drawn)", "≥ 7.30"],
  ["O=C(O)c1ccc(-c2nc(C3(CN[C@H]4CC4c4ccccc4)CC3)no2)cn1 (stereo partly drawn)", "6.30 to 7.00"]
]}

// next item, pIC50 requested
IN: Data request, read-out pIC50, for c1ccc(C2C[C@@H]2NCC2(c3noc(-c4cn5c(n4)CCCC5)n3)CC2)cc1 (stereo partly drawn)
OUT: ≥ 7.30

---

pIC50: −log10 of the molar value.
The following compounds each carry a recorded pIC50 for human LSD1 (Homo sapiens (Human)).

Worked cases, answers included:
{"columns": ["compound", "metric.name", "assay.value"],
 "data": [
  ["Clc1ccc2oc(C3(CN[C@H]4C[C@@H]4c4ccccc4)CC3)nc2c1", "pIC50", "7.00 to 7.30"],
  ["c1ccc(C2C[C@@H]2NCC2(CNCC3CCNC3)CC2)cc1 (some centres unmarked)", "pIC50", "≥ 7.30"],
  ["NC1CC2(C1)CC(c1nc(C3(CN[C@@H]4C[C@H]4c4ccccc4)CC3)no1)C2 (some centres unmarked)", "pIC50", "≥ 7.30"]
]}

// switching to the query compound
IN: Give the measured pIC50 of COc1ccc(-c2nc(C3(CN[C@H]4CC4c4ccccc4)CCC3)no2)cn1 (some centres unmarked) .
OUT: ≥ 7.30

---

# assayed.system: human LSD1 (Homo sapiens (Human), UniProt O60341)
# experimental.protocol: Evaluation of enzyme activity: LSD1 fluorescence coupling enzyme assay (HRP/Amplex Red)
# Assay type: biochemical
# test.conditions: human LSD1, histone H3(1-21)K4me2 peptide 10 μM, 30 min pre-incubation
metric.name: IC50

IN: Look at this compound and give its reported IC50. c1ccc(C2C[C@@H]2NCC2(CN3CC4CNCC4C3)CC2)cc1 (some centres unmarked)
OUT: ≤ 0.05 µM

IN: Name the recorded IC50 for `O=C(O)c1ccc(C(=O)N2CCC(c3nc(C4(CN[C@H]5C[C@@H]5c5ccccc5)CC4)no3)CC2)cc1` .
OUT: 0.1 to 0.5 µM

IN: Need IC50, item `N[C@H]1CC[C@H](c2nc(C3(CN[C@@H]4C[C@H]4c4ccccc4)CC3)no2)CC1`
OUT: ≤ 0.05 µM

IN: For Fc1cc(F)c(-c2nc(C3(CN[C@H]4CC4c4ccccc4)CCC3)no2)c(F)c1 (some centres unmarked) , what is its reported IC50?
OUT: ≤ 0.05 µM

---

# experimental.protocol: Pharmacokinetic evaluation in C57BL/6 mice after intravenous and oral administration
# Format: in vivo
# test.conditions: male, mouse, plasma, IV 1 mg/kg, read-out: volumes of distribution Vdss
metric.name: Vd (L/kg)

{"columns": ["molecule", "metric.name", "assay.value"],
 "data": [
  ["Clc1ccc(-c2nc(C3(CN[C@H]4CC4c4ccccc4)CC3)no2)cc1 (some centres unmarked)", "Vd", 3],
  ["FC(F)(F)c1ccc(-c2nc(C3(CN[C@H]4CC4c4ccccc4)CC3)no2)cn1 (some centres unmarked)", "Vd", 1.4],
  ["CC1(c2nc(C3(CN[C@@H]4C[C@H]4c4ccccc4)CC3)no2)CCC(N)CC1 (some centres unmarked)", "Vd", 21.7],
  ["N[C@H]1CC[C@H](c2noc(C3(CN[C@@H]4C[C@H]4c4ccccc4)CC3)n2)CC1", "Vd", 10.3],
  ["O=C(O)C12CCC(c3nc(C4(CN[C@H]5CC5c5ccccc5)CC4)no3)(CC1)CC2 (some centres unmarked)", "Vd", 0.5]
]}

[1] N[C@H]1CC[C@H](c2cc(C3(CN[C@@H]4C[C@H]4c4ccccc4)CC3)no2)CC1
[2] O=C(O)[C@@H]1CCCN1CC1(CN[C@H]2CC2c2ccccc2)CC1 (some centres unmarked)
IN: Lab notebook, comparison: 1 versus 2 , higher Vd goes to which? Answer = label.
OUT: 1
(1: 20.9 L/kg, 2: 2.6 L/kg)

---

# experimental.protocol: Pharmacokinetic evaluation in C57BL/6 mice after intravenous and oral administration
# Type: in vivo
# test.conditions: male, mouse, plasma, PO 2 mg/kg, read-out: the area under the plasma concentration-time curve AUC0-last PO
metric.name: AUC(0-t) (µM·h)

Record excerpt, results attached:
{"columns": ["compound", "readout.units", "AUC(0-t)"],
 "data": [
  ["CC1(c2nc(C3(CN[C@@H]4C[C@H]4c4ccccc4)CC3)no2)CCC(N)CC1 (stereo partly shown)", "µM·h", 0.273],
  ["O=C(O)[C@@H]1CCCN1CC1(CN[C@H]2CC2c2ccccc2)CC1 (stereo partly shown)", "µM·h", 1.13]
]}

[I] N#Cc1ccc(-c2nc(C3(CN[C@H]4CC4c4ccccc4)CC3)no2)cc1 (stereo partly shown)
[II] O=C(O)[C@H]1CC[C@H](c2nc(C3(CN[C@@H]4C[C@H]4c4ccccc4)CC3)no2)CC1
IN: Of the two listed items, I and II , which carries the larger AUC(0-t) figure? State the label of the item chosen.
OUT: II

[I] FC(F)(F)c1ccc(-c2nc(C3(CN[C@H]4CC4c4ccccc4)CC3)no2)cn1 (stereo partly shown)
[II] N[C@H]1CC[C@H](c2cc(C3(CN[C@@H]4C[C@H]4c4ccccc4)CC3)no2)CC1
[III] N[C@H]1CC[C@H](c2nc(C3(CN[C@@H]4C[C@H]4c4ccccc4)CC3)no2)CC1
[IV] N[C@H]1CC[C@H](c2noc(C3(CN[C@@H]4C[C@H]4c4ccccc4)CC3)n2)CC1
[V] N[C@H]1CC[C@@H](c2nc(C3(CN[C@@H]4C[C@H]4c4ccccc4)CC3)no2)CC1
IN: Ascending by AUC(0-t), please: list the compounds accordingly. A ranking is expressed here by listing the labels in the requested order.
OUT: V, III, II, IV, I

[I] Clc1ccc(-c2nc(C3(CN[C@H]4CC4c4ccccc4)CC3)no2)cc1 (stereo partly shown)
[II] O=C(O)c1ccc(CN2CCC(c3nc(C4(CN[C@@H]5CC5c5ccccc5)CC4)no3)CC2)cc1 (stereo partly shown)
IN: Among I and II , whose measured AUC(0-t) is the smaller figure? To answer, give the label that identifies your chosen option.
OUT: II

[P] O=C(O)C12CCC(c3nc(C4(CN[C@H]5CC5c5ccccc5)CC4)no3)(CC1)CC2 (stereo partly shown)
[Q] O=C(O)C1(CN2CCC(c3nc(C4(CN[C@@H]5C[C@H]5c5ccccc5)CC4)no3)CC2)CCC1
IN: Select one. Lower AUC(0-t): P or Q Write the label of whichever entry you select.
OUT: Q
(Q: 0.37 µM·h, P: 3.86 µM·h)
